Target system: MNK1 (Homo sapiens, UniProt Q9BUB5)
Assay info: In vitro MNK kinase assay (Caliper LabChip mobility shift)
Assay type: biochemical
Condition info: enzymatic, 1.2 mM ATP; read-out: IC50 Mnk1
pIC50: −log10 of the molar value.
Recorded pIC50 by entry

Task: Give the measured pIC50 of `CN1CCN(C(=O)c2ccc(-c3ccc4ncc(-c5ccc(C#N)cc5)n4c3)cc2C(F)(F)F)CC1` .
Output: > 7.00

Task: One more compound: `CC(=O)NC1CCN(C(=O)c2ccc(-c3ccn4ncc(-c5ccc(C#N)cc5)c4n3)cc2)CC1`
Output: > 7.00

Task: Next compound up: `N#Cc1ccc(-c2cnc3ccc(-c4ccc(C(=O)N5CCOCC5)c(N5CCOCC5)c4)cn23)cc1`
Output: > 7.00

Task: Further, for `CC(C)(C)N1CCN(C(=O)c2ccc(-c3cn4c(-c5ccc(C(N)=O)cc5)cnc4cn3)cc2)CC1` ?
Output: > 7.00

Task: Here is the next compound: `COC1(C)CCN(C(=O)c2ccc(-c3ccc4ncc(-c5ccc(C#N)cc5)n4c3)cc2)CC1`
Output: > 7.00

***
Task: Which pIC50 is reported for this compound? `N#Cc1ccc(-c2cnc3ccc(-c4ccc(C(=O)N5CCC(CN)CC5)cc4)cn23)cc1`
Output: > 7.00

Task: For `N#Cc1ccc(-c2cnc3cnc(-c4ccc(C(=O)N5CCC6(CC5)COC6)cc4)cn23)cc1` then?
Output: > 6.00

###

Target system: MNK1 (Homo sapiens, UniProt Q9BUB5)
Assay info: In vitro MNK kinase assay (Caliper LabChip mobility shift)
Format: biochemical
Condition info: enzymatic, 1.2 mM ATP; read-out: IC50 Mnk1
Structures can show the parent of a compound that is named as a salt.
The following compounds are shown together with reported IC50 values.

Task: Which measured IC50 value corresponds to `CN1CCN(C(=O)c2ccc(-c3ccc4ncc(-c5ccc(C#N)cc5)n4c3)cc2)CC1` ?
Output: < 100 nM

Task: Moving on to the next compound: `O=C(c1ccc(-c2cn3c(-c4ccc(Cl)cc4)cnc3cn2)cc1)N1CCC(NC(=O)C(F)(F)F)CC1`
Output: < 1000 nM

New cases:
Task: Reported IC50 for `CN1CCN(C(=O)c2ccc(-c3cn4c(-c5ccc(Cl)cc5)cnc4cn3)cc2)CC1` : what is it?
Output: < 1000 nM

Task: Field entry: `CN1CCN(C(=O)c2ccc(-c3ccc4ncc(-c5ccc(C#N)cc5)n4n3)cc2Cl)CC1`
Output: < 100 nM

Task: Continue with `N#Cc1ccc(-c2cnc3ccc(-c4ccc(C(=O)N5CCNC(=O)C5)cc4)cn23)cc1`
Output: < 100 nM

Task: Another compound to look at: `CN1CCN(C2CCN(C(=O)c3ccc(-c4ccc5ncc(-c6ccc(C#N)cc6)n5n4)cc3)CC2)CC1`
Output: < 100 nM

Task: `CC1(N)CCN(C(=O)c2ccc(-c3cn4c(-c5ccc(C#N)cc5)cnc4cn3)cc2Cl)CC1` , same question.
Output: < 100 nM

Task: O=C(c1ccc(-c2cn3c(-c4ccc(Cl)cc4)cnc3cn2)cc1)N1CCNCC1 [Example 46, 2,2,2-trifluoroacetate salt] , same question.
Output: < 1000 nM

Task: Thanks! And `O=C(c1ccc(-c2cn3c(-c4ccc(O)cc4)cnc3cn2)cc1)N1CCOCC1` ?
Output: < 1000 nM

Task: # iterate: `CN1CCN(C(=O)c2ccc(-c3ccc4ncc(-c5ccc(C#N)cc5)n4c3)cc2O)CC1`
Output: < 100 nM

Task: // repeat for `N#Cc1ccc(-c2cnc3cnc(-c4ccc(C(=O)N5CCC(O)CC5)cc4)cn23)cc1` and report
Output: < 1000 nM

Task: Try this compound next: `N#Cc1ccc(-c2cnc3ccc(-c4ccc(C(=O)N5CCCOCC5)cc4)nn23)cc1`
Output: < 100 nM

Task: `N#Cc1ccc(-c2cnc3ccc(-c4ccc(C(=O)N5CCNCC5)c(O)c4)cn23)cc1` , same question.
Output: < 100 nM

Task: Entry `CC(C)N1CCN(C(=O)c2ccc(-c3ccc4ncc(-c5ccc(C#N)cc5)n4n3)cc2)CC1` please
Output: < 100 nM

Task: Here is the next compound: `CN1CCN(C2(C)CCN(C(=O)c3ccc(-c4ccc5ncc(-c6ccc(C#N)cc6)n5c4)cc3)CC2)CC1`
Output: < 100 nM
